System: HCC2218;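 note: cell viability assay read-out, with IC50 given as the concentration that inhibits growth of the cell line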
Assay: cells
Assay type: functional, cell-based
Conditions: Homo sapiens
Description: SANGER: Inhibition of human HCC2218 cell growth in a cell viability assay.
reported.endpoint: IC50

Sample records with IC50:
molecule: C[C@]1(c2nc3c(C(N)=O)cccc3[nH]2)CCCN1 [VELIPARIB]
IC50: > 5 µM
//
molecule: N#C/C(=C1/Nc2ccccc2S1)c1ccnc(NCCc2cccnc2)n1
IC50: > 8 µM
//
molecule: Cc1ccc(NC(=O)c2cccc(C(C)(C)C#N)c2)cc1Nc1ccc2ncn(C)c(=O)c2c1
IC50: > 4 µM

Data point: Cc1nc(Nc2ncc(C(=O)Nc3c(C)cccc3Cl)s2)cc(N2CCN(CCO)CC2)n1 [DASATINIB] ; IC50 = > 1.28 µM

----------
Tested on: SW684
Assay: cells
Assay type: functional, cell-based
Details: Homo sapiens
Description: SANGER: Inhibition of human SW684 cell growth in a cell viability assay.
Record form. Attribute: IC50. Fill in for each entry.

Sample records with IC50:
compound: C/C=C(/C)C(=O)O[C@H]1C(C)=C2[C@H]([C@@H]1OC(=O)CCCCCCC)[C@@](C)(OC(C)=O)C[C@H](OC(=O)CCC)[C@@]1(O)[C@H]2OC(=O)[C@@]1(C)O [THAPSIGARGIN]
assay.target: SW684
test.value: > 512 nM
--
compound: Fc1cc(-c2cc[nH]/c(=N/c3ccc(-n4cnc(N5CCOCC5)n4)cc3)n2)cc(N2CCOCC2)c1
assay.target: SW684
test.value: 3040 nM
--
compound: CC(O)(CS(=O)(=O)c1ccc(F)cc1)C(=O)Nc1ccc(C#N)c(C(F)(F)F)c1 (stereo not given) [BICALUTAMIDE]
assay.target: SW684;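 note: growth inhibition of human SW684 cells, measured by a cell viability assay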
test.value: > 1020 nM

Give IC50 for each listed item.
1. CCCS(=O)(=O)Nc1ccc(F)c(C(=O)c2c[nH]c3ncc(Cl)cc23)c1F [PLX-4720]
2. CCn1c(-c2nonc2N)nc2cnc(Oc3cccc(NC(=O)c4ccc(OCCN5CCOCC5)cc4)c3)cc21 [GSK-269962A]

A:
1. > 10000 nM
2. > 2500 nM

----------
Tested on: DMS-153
Assay: cells
Format: functional, cell-based
Settings: Homo sapiens
Description: SANGER: Inhibition of human DMS-153 cell growth in a cell viability assay.
reported.endpoint: IC50

Sample records with IC50:
compound: N#C/C(=C1/Nc2ccccc2S1)c1ccnc(NCCc2cccnc2)n1
assay.target: DMS-153
IC50: > 8 µM
--
compound: C/C(O)=C(\C#N)C(=O)Nc1cc(Br)ccc1Br
assay.target: DMS-153
IC50: > 16 µM

Read the next record carefully.
Data point: CC(C)=CC[C@@H](O)C1=CC(=O)c2c(O)ccc(O)c2C1=O [SHIKONIN] ; IC50 = > 16 µM

----------
Record form. Attribute: IC50. Fill in for each entry.
System: NB13;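 note: cell viability readout measuring growth inhibition of human NB13 cells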
Experiment: cells
Format: functional, cell-based
Settings: Homo sapiens
Description: SANGER: Inhibition of human NB13 cell growth in a cell viability assay.

Sample records with IC50:
molecule: C[C@]1(c2nc3c(C(N)=O)cccc3[nH]2)CCCN1
IC50: > 5000 nM
//
molecule: CC(O)(CS(=O)(=O)c1ccc(F)cc1)C(=O)Nc1ccc(C#N)c(C(F)(F)F)c1 (stereo not given) [BICALUTAMIDE]
IC50: > 1020 nM
//
molecule: Cc1nc(Nc2ncc(C(=O)Nc3c(C)cccc3Cl)s2)cc(N2CCN(CCO)CC2)n1
IC50: > 1280 nM
//
molecule: O=c1cc(N2CCOCC2)oc2c(-c3cccc4c3sc3ccccc34)cccc12
IC50: > 2000 nM

Read the next record carefully.
Form field IC50 for item "CC(=O)c1c(C)c2cnc(Nc3ccc(N4CCNCC4)cn3)nc2n(C2CCCC2)c1=O" on NB13: > 4000 nM

----------
Test system: NCI-H1437;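 note: growth inhibition of human NCI-H1437 cells, read out by a cell viability assay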
Experiment: cells
Type: functional, cell-based
Conditions: Homo sapiens
Description: SANGER: Inhibition of human NCI-H1437 cell growth in a cell viability assay.
pIC50: −log10 of the molar value.
reported.endpoint: pIC50

Sample records with pIC50:
record.smiles: C/C(O)=C(\C#N)C(=O)Nc1cc(Br)ccc1Br
pIC50: < 4.80

record.smiles: C[C@]1(c2nc3c(C(N)=O)cccc3[nH]2)CCCN1
pIC50: < 5.30

Read the next record carefully.
Data point: "O=c1cc(N2CCOCC2)oc2c(-c3cccc4c3sc3ccccc34)cccc12" ; pIC50 = < 5.70

----------
System: LU-139
Experiment: cells
Type: functional, cell-based
Details: Homo sapiens
Description: SANGER: Inhibition of human LU-139 cell growth in a cell viability assay.
Record form. Attribute: pIC50. Fill in for each entry.
One number for each entry, as −log10 of the molar value.

Give pIC50 for each listed item.
1. CC(C)=CC[C@@H](O)C1=CC(=O)c2c(O)ccc(O)c2C1=O
2. C/C=C(/C)C(=O)O[C@H]1C(C)=C2[C@H]([C@@H]1OC(=O)CCCCCCC)[C@@](C)(OC(C)=O)C[C@H](OC(=O)CCC)[C@@]1(O)[C@H]2OC(=O)[C@@]1(C)O

A:
5.20
7.47

----------
System: BXPC-3
Assay: cells
Assay type: functional, cell-based
Conditions: Homo sapiens
Description: SANGER: Inhibition of human BxPC-3 cell growth in a cell viability assay.
pIC50: −log10 of the molar value.
Record form. Attribute: pIC50. Fill in for each entry.

Sample records with pIC50:
compound: O=c1cc(N2CCOCC2)oc2c(-c3cccc4c3sc3ccccc34)cccc12
assay.target: BXPC-3
pIC50: < 5.70

compound: C[C@]12O[C@H](C[C@]1(O)CO)n1c3ccccc3c3c4c(c5c6ccccc6n2c5c31)CNC4=O [LESTAURTINIB]
assay.target: BXPC-3
pIC50: < 5.70

compound: C/C(O)=C(\C#N)C(=O)Nc1cc(Br)ccc1Br
assay.target: BXPC-3
pIC50: < 4.80

Data point: "Cn1cc(/C=C2\C(=O)Nc3cccnc32)c2ccccc21" ; pIC50 = < 5.70

----------
System: MCF7
Experiment: cells
Type: functional, cell-based
Conditions: Homo sapiens
Description: SANGER: Inhibition of human MCF7 cell growth in a cell viability assay.
pIC50: −log10 of the molar value.
Record form. Attribute: pIC50. Fill in for each entry.

molecule: COc1cc(Nc2c(C#N)cnc3cc(OCCCN4CCN(C)CC4)c(OC)cc23)c(Cl)cc1Cl [BOSUTINIB]
assay.target: MCF7;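 note: growth inhibition of human MCF7 cells, read out with a cell viability assay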
test.value: < 5.70

Give pIC50 for each listed item.
1. C/C(O)=C(\C#N)C(=O)Nc1cc(Br)ccc1Br
2. C/C=C(/C)C(=O)O[C@H]1C(C)=C2[C@H]([C@@H]1OC(=O)CCCCCCC)[C@@](C)(OC(C)=O)C[C@H](OC(=O)CCC)[C@@]1(O)[C@H]2OC(=O)[C@@]1(C)O [THAPSIGARGIN]
3. Cn1cc(/C=C2\C(=O)Nc3cccnc32)c2ccccc21
4. O=c1[nH]c2ccccc2n1C1CCN(Cc2ccc(-c3nc4cc5[nH]cnc5cc4nc3-c3ccccc3)cc2)CC1

A:
< 4.80
> 8.70
< 5.70
< 5.59

----------
System: Ramos-2G6-4C10;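 note: growth inhibition of the cell line, measured by a cell viability read-out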
Assay: cells
Assay type: functional, cell-based
Settings: Homo sapiens
Description: SANGER: Inhibition of human Ramos-2G6-4C10 cell growth in a cell viability assay.
pIC50: −log10 of the molar value.
Record form. Attribute: pIC50. Fill in for each entry.

Give pIC50 for each listed item.
1. O=c1[nH]c2ccccc2n1C1CCN(Cc2ccc(-c3nc4cc5[nH]cnc5cc4nc3-c3ccccc3)cc2)CC1
2. O=c1cc(N2CCOCC2)oc2c(-c3cccc4c3sc3ccccc34)cccc12
3. Cc1[nH]c(/C=C2\C(=O)Nc3ccc(S(=O)(=O)Cc4c(Cl)cccc4Cl)cc32)c(C)c1C(=O)N1CCC[C@@H]1CN1CCCC1

A:
1. < 5.59
2. < 5.70
3. < 5.70

----------
Record form. Attribute: IC50. Fill in for each entry.
Test system: UACC-257
Test: cells
Assay type: functional, cell-based
Details: Homo sapiens
Description: SANGER: Inhibition of human UACC-257 cell growth in a cell viability assay.

Sample records with IC50:
record.smiles: N#C/C(=C1/Nc2ccccc2S1)c1ccnc(NCCc2cccnc2)n1
assay.target: UACC-257
IC50: > 8 µM
--
record.smiles: COc1cc(Nc2c(C#N)cnc3cc(OCCCN4CCN(C)CC4)c(OC)cc23)c(Cl)cc1Cl
assay.target: UACC-257
IC50: > 2 µM

Read the next record carefully.
Data point: "CC(C)=CC[C@@H](O)C1=CC(=O)c2c(O)ccc(O)c2C1=O" ; IC50 = > 16 µM

----------
Test system: SW1573
Assay: cells
Type: functional, cell-based
Conditions: Homo sapiens
Description: SANGER: Inhibition of human SW1573 cell growth in a cell viability assay.
pIC50: −log10 of the molar value.
reported.endpoint: pIC50

Sample records with pIC50:
molecule: N#C/C(=C1/Nc2ccccc2S1)c1ccnc(NCCc2cccnc2)n1
pIC50: < 5.10

molecule: O=c1[nH]c2ccccc2n1C1CCN(Cc2ccc(-c3nc4cc5[nH]cnc5cc4nc3-c3ccccc3)cc2)CC1
pIC50: < 5.59

Read the next record carefully.
Data point: CC(O)(CS(=O)(=O)c1ccc(F)cc1)C(=O)Nc1ccc(C#N)c(C(F)(F)F)c1 (stereo not drawn) [BICALUTAMIDE] ; pIC50 = < 5.99

----------
System: EFO-21;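 note: growth inhibition of EFO-21 cells measured with a viability assay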
Test: cells
Assay type: functional, cell-based
Conditions: Homo sapiens
Description: SANGER: Inhibition of human EFO-21 cell growth in a cell viability assay.
pIC50: −log10 of the molar value.
reported.endpoint: pIC50

Sample records with pIC50:
record.smiles: NC(=O)c1ncn([C@@H]2O[C@H](COP(=O)(O)O)[C@@H](O)[C@H]2O)c1N
reported.endpoint: pIC50
test.value: < 2.70
//
record.smiles: CCCS(=O)(=O)Nc1ccc(F)c(C(=O)c2c[nH]c3ncc(Cl)cc23)c1F
reported.endpoint: pIC50
test.value: < 5.00
//
record.smiles: CC(=O)c1c(C)c2cnc(Nc3ccc(N4CCNCC4)cn3)nc2n(C2CCCC2)c1=O
reported.endpoint: pIC50
test.value: < 5.40
//
record.smiles: C/C(O)=C(\C#N)C(=O)Nc1cc(Br)ccc1Br
reported.endpoint: pIC50
test.value: < 4.80
//
record.smiles: N#C/C(=C1/Nc2ccccc2S1)c1ccnc(NCCc2cccnc2)n1
reported.endpoint: pIC50
test.value: < 5.10

Read the next record carefully.
Data point: "COc1cc(Nc2c(C#N)cnc3cc(OCCCN4CCN(C)CC4)c(OC)cc23)c(Cl)cc1Cl" ; pIC50 = < 5.70
